biological target: human Y4 receptor (human, UniProt P50391 1-375); assay: 125I-PP displacement
Sequence (P50391 whole entry): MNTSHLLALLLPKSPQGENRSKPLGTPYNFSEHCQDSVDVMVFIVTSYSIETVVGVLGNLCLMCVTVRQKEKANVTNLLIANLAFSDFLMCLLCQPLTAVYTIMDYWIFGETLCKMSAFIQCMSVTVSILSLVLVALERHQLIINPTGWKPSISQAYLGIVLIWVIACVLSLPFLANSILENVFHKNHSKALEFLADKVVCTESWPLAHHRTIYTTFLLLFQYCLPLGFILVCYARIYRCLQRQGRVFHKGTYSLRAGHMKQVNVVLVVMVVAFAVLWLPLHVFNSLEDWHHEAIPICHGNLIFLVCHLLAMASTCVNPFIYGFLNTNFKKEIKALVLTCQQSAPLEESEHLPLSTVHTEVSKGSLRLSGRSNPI
EXPERIMENTAL_READOUT: IC50 (nM)
Quick reminder: number only, in nM, skip the unit.

Sample records with IC50:
APLEPHYPGDNATPEELAKYAAELRRYINKLTRPRY [4058703] = 0.059
YAPLEPKYPGDNATPEELAKYAAELRRYINKLTRPRY [4058693] = 0.077
AAPLEPHYPGDNATPEEMAKYAAELRRYINKLTRPRY [4058697] = 0.095
PLEPEYPGDNATPEEMARYAAELRRYINKLTRPRY [4058674] = 0.082
PAPLEPEYPGDDATPQEMARYAAELRRYINKLTRPRY [4058681] = 0.087

For HAPLEPHYPGDNATPEEMAKYAAELRRYINKLTRPRY [4058699] the binder record lists IC50 as 0.092

For PLEPHYPGDNATPEELAKYAAELRRYINKLTRPRY [4058702] the binder record lists IC50 as 0.086

For PAPLEPHYPGDDATPEELAKYAAELRRYINKLTRPRY [4058705] the binder record lists IC50 as 0.097

For AAPLEPKYPGDNATPEELAKYAAELRRYINKLTRPRY [4058689] the binder record lists IC50 as 0.098

For PAPLEPTYPGDNATPEELARYAAALRRYINKLTRPRY [4058738] the binder record lists IC50 as 0.055

For GAPLEPEYPGDDATPQEMARYAAELRRYINKLTRPRY [4058682] the binder record lists IC50 as 0.076

For PLEPKYPGDNATPEELAKYAAELRRYINKLTRPRY [4058687] the binder record lists IC50 as 0.096
